- assay-system: T1, ROR1 naturally expressed on human tumor cell lines (A549, Jeko-1, SW620, PA-1) (human, UniProt Q01973 30-937)
- T1 construct: whole, on cells; also called cells expressing ROR1
- T1 sequence (Q01973 30-937): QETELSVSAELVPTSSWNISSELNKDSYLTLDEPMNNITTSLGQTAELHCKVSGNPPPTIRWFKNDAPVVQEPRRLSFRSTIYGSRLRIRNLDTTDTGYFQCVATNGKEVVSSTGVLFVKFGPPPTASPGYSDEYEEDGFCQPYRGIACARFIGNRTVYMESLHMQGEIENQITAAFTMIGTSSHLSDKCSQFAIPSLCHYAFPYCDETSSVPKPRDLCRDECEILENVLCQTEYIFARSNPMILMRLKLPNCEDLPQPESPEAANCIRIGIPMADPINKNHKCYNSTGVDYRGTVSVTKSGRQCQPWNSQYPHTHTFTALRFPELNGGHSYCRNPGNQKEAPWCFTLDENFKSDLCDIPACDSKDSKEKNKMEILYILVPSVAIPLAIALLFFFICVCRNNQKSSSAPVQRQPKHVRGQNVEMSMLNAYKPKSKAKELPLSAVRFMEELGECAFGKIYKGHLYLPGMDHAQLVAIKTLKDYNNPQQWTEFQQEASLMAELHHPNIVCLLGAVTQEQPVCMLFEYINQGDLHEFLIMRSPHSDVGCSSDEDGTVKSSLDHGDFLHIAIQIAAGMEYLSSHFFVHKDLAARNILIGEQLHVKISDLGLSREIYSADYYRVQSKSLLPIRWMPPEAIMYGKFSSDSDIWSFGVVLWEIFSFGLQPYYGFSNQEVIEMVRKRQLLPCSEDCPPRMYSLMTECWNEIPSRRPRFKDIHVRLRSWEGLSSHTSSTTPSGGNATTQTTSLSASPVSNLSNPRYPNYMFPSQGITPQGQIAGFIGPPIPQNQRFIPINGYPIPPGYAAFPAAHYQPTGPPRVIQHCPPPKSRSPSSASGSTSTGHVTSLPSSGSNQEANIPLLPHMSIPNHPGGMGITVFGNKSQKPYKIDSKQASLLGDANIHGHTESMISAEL
- assay-method-text: FACS on Jeko-1 cells naturally expressing ROR1
property-measured: EC50 (nM)
A number alone suffices; assume nM.

# query: EC50 of entry hz29H5D8-3.1 (antibody, human IgG1, kappa, V domains shown, Humanized, human IgG1/kappa) VH: QVQLVQSGAEVKKPGSSVKVSCKASGYTFTNYGISWVRQAPGQGLEWMGEIYPRSVNTYYAQKFQGRVTITADKSTSTAYMELSSLRSEDTAVYYCARHYYGSSLDYWGQGTLVTVSS VL: DIQMTQSPSSLSASVGDRVTITCITSSDIEDDMNWYQQKPGKAPKLLISEGNSLRPGVPSRFSSSGYGTDFTFTISSLQPEDIATYYCLQSDNIFTFGQGTKVEIKR 0.014
